- TESTED_ON: GCN2 kinase (Homo sapiens, UniProt Q9P2K8)
- Sequence (Q9P2K8 whole entry): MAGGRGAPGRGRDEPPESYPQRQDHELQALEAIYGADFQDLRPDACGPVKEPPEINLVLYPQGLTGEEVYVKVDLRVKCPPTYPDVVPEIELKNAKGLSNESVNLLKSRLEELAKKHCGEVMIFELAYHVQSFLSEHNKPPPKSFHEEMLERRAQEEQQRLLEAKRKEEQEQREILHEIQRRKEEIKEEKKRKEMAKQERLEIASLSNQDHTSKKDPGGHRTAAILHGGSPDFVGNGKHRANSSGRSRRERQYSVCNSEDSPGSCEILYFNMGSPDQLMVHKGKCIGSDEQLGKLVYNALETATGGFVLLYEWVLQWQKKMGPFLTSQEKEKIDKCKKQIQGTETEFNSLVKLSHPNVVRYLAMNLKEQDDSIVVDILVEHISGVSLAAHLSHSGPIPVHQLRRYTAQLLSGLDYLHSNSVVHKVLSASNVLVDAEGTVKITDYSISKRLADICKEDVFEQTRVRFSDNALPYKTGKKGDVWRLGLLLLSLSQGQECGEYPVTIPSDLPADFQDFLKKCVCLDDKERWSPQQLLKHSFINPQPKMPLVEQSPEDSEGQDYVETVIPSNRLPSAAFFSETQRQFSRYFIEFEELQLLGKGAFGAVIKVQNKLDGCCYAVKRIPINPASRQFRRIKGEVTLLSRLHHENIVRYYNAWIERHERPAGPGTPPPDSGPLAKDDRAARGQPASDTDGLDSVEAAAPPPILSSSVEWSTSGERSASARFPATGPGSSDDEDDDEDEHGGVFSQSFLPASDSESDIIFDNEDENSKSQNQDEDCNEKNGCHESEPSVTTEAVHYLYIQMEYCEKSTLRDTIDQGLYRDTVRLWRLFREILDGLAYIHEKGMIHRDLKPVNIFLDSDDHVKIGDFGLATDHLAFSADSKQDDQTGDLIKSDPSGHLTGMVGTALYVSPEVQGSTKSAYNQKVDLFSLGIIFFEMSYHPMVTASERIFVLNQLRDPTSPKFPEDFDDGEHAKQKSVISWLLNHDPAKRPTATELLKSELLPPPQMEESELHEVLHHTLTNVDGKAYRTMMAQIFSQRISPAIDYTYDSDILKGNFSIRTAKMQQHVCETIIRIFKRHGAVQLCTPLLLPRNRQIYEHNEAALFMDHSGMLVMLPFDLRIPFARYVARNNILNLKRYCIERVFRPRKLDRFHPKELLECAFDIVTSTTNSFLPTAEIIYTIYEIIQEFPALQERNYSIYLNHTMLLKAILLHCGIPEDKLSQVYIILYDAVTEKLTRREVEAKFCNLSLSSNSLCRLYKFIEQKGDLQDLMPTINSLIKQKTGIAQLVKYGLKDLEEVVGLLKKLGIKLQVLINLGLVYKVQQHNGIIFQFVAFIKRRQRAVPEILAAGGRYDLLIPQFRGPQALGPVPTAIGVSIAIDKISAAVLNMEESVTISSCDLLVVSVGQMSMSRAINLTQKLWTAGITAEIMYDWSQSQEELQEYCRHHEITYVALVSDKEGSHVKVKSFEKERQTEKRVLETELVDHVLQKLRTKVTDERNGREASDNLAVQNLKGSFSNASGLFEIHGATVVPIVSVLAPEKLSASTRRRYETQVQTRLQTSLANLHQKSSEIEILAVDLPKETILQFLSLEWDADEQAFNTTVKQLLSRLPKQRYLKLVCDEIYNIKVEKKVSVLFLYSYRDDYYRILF
- EXPERIMENT_DESCRIPTION: GCN2 enzyme inhibition assay (Transcreener ADP2 fluorescence polarization)
- Type: biochemical
- ASSAY_SETUP: Enzyme activity for compounds of Formula IV; Ki(app), 280 μM ATP, 25° C.
pKi: −log10 of the molar value.
PROPERTY_MEASURED: pKi

Form field: pKi recorded for N#Cc1cn2c(-c3nccc(N4CCOC(c5cn[nH]c5)C4)n3)cnc2cn1 (stereo not drawn) [IV-18] with GCN2 kinase (Homo sapiens, UniProt Q9P2K8) (enter value)
> 8.00

Further cases:
Lookup: pKi / GCN2 kinase (Homo sapiens, UniProt Q9P2K8) / COCC1CCCN(c2ccnc(-c3cnc4cnc(C(F)(F)F)cn34)n2)C1 (stereo not drawn) [IV-495]
6.00 to 7.00

Tell me reported pKi for FC(F)(F)c1cn2c(-c3nccc(N4CCC5(CCOCC5)C4)n3)cnc2cn1 [IV-522] , tested with GCN2 kinase (Homo sapiens, UniProt Q9P2K8).
6.00 to 7.00

Lab request: please report pKi under test system GCN2 kinase (Homo sapiens, UniProt Q9P2K8) for FC(F)c1cn2c(-c3nccc(N4CCOC(c5cn[nH]c5)C4)n3)cnc2cn1 (stereo not drawn) [IV-28]
7.00 to 8.00

Given the entry C[C@H]1[C@@H](c2cn[nH]c2)CCCN1c1ccnc(-c2cnc3cnc(Br)cn23)n1 (relative stereo) [IV-387] , what pKi was observed with GCN2 kinase (Homo sapiens, UniProt Q9P2K8)?
> 8.00

Any idea what pKi came out for Cc1cn2c(-c3nccc(N4CCOC(c5cn[nH]c5)C4)n3)cnc2cn1 (stereo not drawn) [IV-20] on GCN2 kinase (Homo sapiens, UniProt Q9P2K8)?
7.00 to 8.00
